This document collects log10(IC50) values reported for Voltage-gated inwardly rectifying potassium channel KCNH2 (Homo sapiens).
Hi team, quick reminder: these entries are log10 of IC50 (µM).

CC(=O)c1cccc(-c2ccc(C3CN(C)C[C@@H]3NS(=O)(=O)C(C)C)cc2)c1 (single isomer, unassigned) :: 0.90
CC(C)S(=O)(=O)N[C@@H]1COCC1c1ccc(-c2ccc(C#N)cc2)cc1 (single isomer, unassigned) :: 1.10
CC(C)S(=O)(=O)N[C@H]1CN(c2ccccc2)CC1c1ccc(-c2ccc(C#N)cc2)cc1 (single isomer, unassigned) :: -0.10
CC(C)S(=O)(=O)N[C@H]1CN(c2ccccc2)CC1c1ccc(-c2ccc(F)nc2)cc1 (single isomer, unassigned) :: -1.10

Qu. Provide the reported log10(IC50) (system: Voltage-gated inwardly rectifying potassium channel KCNH2 (Homo sapiens)) for CC(C)S(=O)(=O)N[C@H]1CN(C)CC1c1ccc(-c2cccnc2F)cc1 (single isomer, unassigned)
Sequence (Q12809 whole entry): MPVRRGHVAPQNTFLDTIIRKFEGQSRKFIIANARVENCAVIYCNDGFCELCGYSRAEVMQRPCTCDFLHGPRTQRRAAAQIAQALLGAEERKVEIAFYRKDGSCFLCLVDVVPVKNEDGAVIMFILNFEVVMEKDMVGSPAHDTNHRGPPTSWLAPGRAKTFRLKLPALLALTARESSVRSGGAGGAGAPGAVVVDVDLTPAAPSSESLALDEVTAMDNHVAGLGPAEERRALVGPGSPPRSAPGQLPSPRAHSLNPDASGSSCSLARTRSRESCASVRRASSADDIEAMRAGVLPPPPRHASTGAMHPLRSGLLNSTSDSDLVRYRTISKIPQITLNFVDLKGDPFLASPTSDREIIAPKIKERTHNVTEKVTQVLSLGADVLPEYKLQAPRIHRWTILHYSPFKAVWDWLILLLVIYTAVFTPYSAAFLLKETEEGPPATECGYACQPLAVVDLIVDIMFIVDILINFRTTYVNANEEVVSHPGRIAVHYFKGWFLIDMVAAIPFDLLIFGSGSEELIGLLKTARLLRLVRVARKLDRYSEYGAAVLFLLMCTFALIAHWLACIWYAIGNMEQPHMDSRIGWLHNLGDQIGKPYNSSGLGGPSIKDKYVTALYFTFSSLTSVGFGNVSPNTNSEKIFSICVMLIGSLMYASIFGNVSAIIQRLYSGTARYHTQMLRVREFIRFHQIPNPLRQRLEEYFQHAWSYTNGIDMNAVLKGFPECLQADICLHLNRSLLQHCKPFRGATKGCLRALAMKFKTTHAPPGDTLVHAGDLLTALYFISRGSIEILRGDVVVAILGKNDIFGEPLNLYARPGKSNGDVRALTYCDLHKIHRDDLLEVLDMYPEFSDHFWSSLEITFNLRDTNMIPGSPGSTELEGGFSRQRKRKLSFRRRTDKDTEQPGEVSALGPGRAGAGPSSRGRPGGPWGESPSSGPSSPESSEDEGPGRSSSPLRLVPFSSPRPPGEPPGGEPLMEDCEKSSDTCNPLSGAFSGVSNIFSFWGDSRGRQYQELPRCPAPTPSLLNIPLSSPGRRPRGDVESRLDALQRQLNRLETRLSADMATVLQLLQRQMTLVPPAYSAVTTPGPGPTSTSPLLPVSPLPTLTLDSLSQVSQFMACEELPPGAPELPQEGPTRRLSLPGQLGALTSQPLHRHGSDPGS
Ans. 0.80

Qu. Provide the reported log10(IC50) (system: Voltage-gated inwardly rectifying potassium channel KCNH2 (Homo sapiens)) for CC(C)S(=O)(=O)N[C@H]1CN(C)CC1c1ccc(-c2cccc(NS(C)(=O)=O)c2)cc1 (single isomer, unassigned)
Ans. 1.50

Where do the numbers come from? From ChEMBL document CHEMBL1287696.
